- Target entity: SARS-CoV-2 3CLpro (Severe acute respiratory syndrome coronavirus 2, UniProt P0DTD1)
- Run description: biochemical
- Type: biochemical
- Condition info: LOPAC1280 primary screen with protease, 5 µM compound, replicate 1
Metric name: Replicate_1 (LOPAC_screen_w_protease)
Answer using only a numeral; do not append any unit.

IN: Quick one: Replicate_1 (LOPAC_screen_w_protease) of CC(C)Cc1ccc([C@H](C)C(=O)O)cc1 [S(+)-Ibuprofen] ?
OUT: 1.122

IN: Quick one: Replicate_1 (LOPAC_screen_w_protease) of Cl.c1ccc2sc(C3(N4CCCCC4)CCCCC3)cc2c1 [BTCP hydrochloride] ?
OUT: 1.768

IN: Quick one: Replicate_1 (LOPAC_screen_w_protease) of CCCn1c(=O)c2[nH]c(C3CCCC3)nc2n(CCC)c1=O [8-Cyclopentyl-1,3-dipropylxanthine] ?
OUT: 3.936

IN: Quick one: Replicate_1 (LOPAC_screen_w_protease) of CCCCCCCCCCCCCCCCCC(=O)OC(CC(=O)O)C[N+](C)(C)C.[Cl-] (racemic) [DL-Stearoylcarnitine chloride] ?
OUT: 3.299

====

- Target entity: SARS-CoV-2 3CLpro (Severe acute respiratory syndrome coronavirus 2)
- Run description: biochemical
- Type: biochemical
- Condition info: 4 h, LOPAC1280 primary screen with protease, 5 µM compound, replicate 2; read-out: Replicate_2 (LOPAC_screen_w_protease)
Where a name gives a salt, the structure may show the parent alone.
Metric name: inhibition at 5 µM (%)
Your answer should be a plain number; it is taken to be in %.

IN: Quick one: inhibition at 5 µM of CC(CCc1ccc(O)cc1)NCCc1ccc(O)c(O)c1 (centres unmarked) [Dobutamine hydrochloride] ?
OUT: 2.06

IN: Quick one: inhibition at 5 µM of `COc1ccccc1N1CCN(CCCCNC(=O)c2ccc3ccccc3c2)CC1` ?
OUT: 1.98

IN: Quick one: inhibition at 5 µM of C1COC(NC(C2CC2)C2CC2)=N1 [Rilmenidine hemifumarate] ?
OUT: -0.41

IN: Quick one: inhibition at 5 µM of COC(=O)C1=CCCN(C)C1 [Arecoline hydrobromide] ?
OUT: 1.16

IN: Quick one: inhibition at 5 µM of O=C(O)C1=CCNCC1 [Isoguvacine hydrochloride] ?
OUT: 1.29

====

For each entry below, report its inhibition at 5 µM value.
- Target entity: SARS-CoV-2 3CLpro (Severe acute respiratory syndrome coronavirus 2)
- Run description: biochemical
- Assay type: biochemical
- Condition info: 4 h, sheet LOPAC_screen_w_protease; LOPAC1280 at 5 µM; replicate 1; read-out: Replicate_1
Where a name gives a salt, the structure may show the parent alone.
Your answer should be a plain number; it is taken to be in %.

IN: Quick one: inhibition at 5 µM of COc1cc2ncnc(Nc3cccc(Cl)c3)c2cc1OC [Tyrphostin AG 1478] ?
OUT: 1.39

IN: Quick one: inhibition at 5 µM of CCOC(=O)C1=C[C@]2(CC)CCCN3CCc4c(n1c1ccccc41)[C@@H]32 [Vinpocetine] ?
OUT: 0.618

IN: Quick one: inhibition at 5 µM of CN(C)C/C=C(/c1ccc(Br)cc1)c1cccnc1 [Zimelidine dihydrochloride] ?
OUT: 1.05

IN: Quick one: inhibition at 5 µM of Cc1cc(C(C)(C)C)cc(C)c1CC1=NCCN1 [Xylometazoline hydrochloride] ?
OUT: 0.813

IN: Quick one: inhibition at 5 µM of CCCn1cnc2c1c(=O)n(CCCCC(C)=O)c(=O)n2C [Propentofylline] ?
OUT: 2.2

IN: Quick one: inhibition at 5 µM of CN(C)CC[C@@H](c1ccc(Br)cc1)c1ccccn1 [(+)-Brompheniramine maleate] ?
OUT: 0.743

IN: Quick one: inhibition at 5 µM of C=C[C@@]1(C)CC(=O)[C@]2(O)[C@@]3(C)[C@@H](O)CCC(C)(C)[C@@H]3[C@H](O)[C@H](OC(C)=O)[C@@]2(C)O1 [Forskolin] ?
OUT: 1.85

IN: Quick one: inhibition at 5 µM of C=CCc1ccccc1OCC(O)CNC1(C)CCC(C(C)(C)NC(=O)CBr)CC1 (stereo not drawn) [Bromoacetyl alprenolol menthane] ?
OUT: 0.0303

IN: Quick one: inhibition at 5 µM of CCN(CC)CCNC(=O)c1cc(S(C)(=O)=O)ccc1OC [Tiapride hydrochloride] ?
OUT: 1.45

IN: Quick one: inhibition at 5 µM of C#CCOC(=O)C1=CCCN(C)C1 [Arecaidine propargyl ester hydrobromide] ?
OUT: 0.854

IN: Quick one: inhibition at 5 µM of CN(C)CC/C=C1/c2ccccc2Sc2ccc(Cl)cc21 [Chlorprothixene hydrochloride] ?
OUT: 0.326

IN: Quick one: inhibition at 5 µM of CN(C)CCOC(C)(c1ccccc1)c1ccccn1 (stereo not drawn) [Doxylamine succinate] ?
OUT: 1.58

IN: Quick one: inhibition at 5 µM of C[C@]12CCC(=O)C=C1CC[C@@H]1[C@@H]2CC[C@@]2(C)[C@H]1CC[C@]2(O)C(=O)CO [Cortexolone] ?
OUT: 2.17

IN: Quick one: inhibition at 5 µM of OCCN1CCN(CCCN2c3ccccc3Sc3ccc(Cl)cc32)CC1 [Perphenazine] ?
OUT: 0.377

IN: Quick one: inhibition at 5 µM of Cc1nc2n(c(=O)c1CCN1CCC(c3noc4cc(F)ccc34)CC1)CCCC2 [Risperidone] ?
OUT: 1.3

IN: Quick one: inhibition at 5 µM of CN(C)CCOC(=O)COc1ccc(Cl)cc1 [Centrophenoxine hydrochloride] ?
OUT: 1.82

IN: Quick one: inhibition at 5 µM of CC(N/C(=N\C#N)Nc1ccncc1)C(C)(C)C (stereo not drawn) [Pinacidil] ?
OUT: 2.49

IN: Quick one: inhibition at 5 µM of Cc1cn(C2CC(N=[N+]=[N-])C(CO)O2)c(=O)[nH]c1=O (stereo not drawn) [3'-Azido-3'-deoxythymidine] ?
OUT: 1.75

IN: Quick one: inhibition at 5 µM of N=C(N)N/N=C/c1c(Cl)cccc1Cl [Guanabenz acetate] ?
OUT: 2.57

IN: Quick one: inhibition at 5 µM of Cc1nccc2c1[nH]c1ccccc12 [Harmane] ?
OUT: 2.71

IN: Quick one: inhibition at 5 µM of CC(C(=O)O)c1ccc(CC2CCCC2=O)cc1 (stereo not drawn) [loxoprofen] ?
OUT: 0.313

====

For each entry below, report its inhibition at 5 µM value.
- Target entity: SARS-CoV-2 3CLpro (Severe acute respiratory syndrome coronavirus 2)
- Run description: biochemical
- Assay type: biochemical
- Condition info: 4 h, read-out: mean
Where a name gives a salt, the structure may show the parent alone.
Your answer should be a plain number; it is taken to be in %.

IN: Quick one: inhibition at 5 µM of `CN/C(=N/CCSCc1nc[nH]c1C)NC#N` ?
OUT: 2.34

IN: Quick one: inhibition at 5 µM of NNc1nncc2ccccc12 [Hydralazine hydrochloride] ?
OUT: 3.03

IN: Quick one: inhibition at 5 µM of CC(C)NP(=O)(NC(C)C)OP(=O)(NC(C)C)NC(C)C [Tetraisopropyl pyrophosphoramide] ?
OUT: 0.452

IN: Quick one: inhibition at 5 µM of c1ccc(C2CN3CCSC3=N2)cc1 (stereo not shown) [Tetramisole hydrochloride] ?
OUT: -0.287

IN: Quick one: inhibition at 5 µM of CCCCCCCCCCCCCC(=O)O[C@@H]1[C@@H](C)[C@@]2(O)[C@@H](C=C(CO)C[C@]3(O)C(=O)C(C)=C[C@@H]23)[C@@H]2C(C)(C)[C@]12OC(C)=O [Phorbol 12-myristate 13-acetate] ?
OUT: 0.686

IN: Quick one: inhibition at 5 µM of CNCCCC12CCC(c3ccccc31)c1ccccc12 [Maprotiline hydrochloride] ?
OUT: 4.77

IN: Quick one: inhibition at 5 µM of C=CC1=C(C)c2cc3[nH]c(cc4nc(cc5[nH]c(cc1n2)c(C)c5CCC(=O)O)C(CCC(=O)O)=C4C)c(C)c3C=C [Protoporphyrin IX disodium] ?
OUT: 2.54

====

- Target entity: SARS-CoV-2 3CLpro (Severe acute respiratory syndrome coronavirus 2)
- Run description: biochemical
- Format: biochemical
- Condition info: sheet LOPAC_screen_w_protease; primary screen at 5 µM; replicate 1
Metric name: Replicate_1 (LOPAC screen with protease)
Answer using only a numeral; do not append any unit.

IN: Quick one: Replicate_1 (LOPAC screen with protease) of Cc1cccc(C)c1OCC(N)C(C)C.I (stereo not drawn) [R(-)-Me5] ?
OUT: 9.8488

IN: Quick one: Replicate_1 (LOPAC screen with protease) of Nc1c[n+](N2CCOCC2)no1.[Cl-] [3-Morpholinosydnonimine hydrochloride] ?
OUT: 21.9907

IN: Quick one: Replicate_1 (LOPAC screen with protease) of C[C@@](Cc1ccc(O)c(O)c1)(NN)C(=O)O [S-(-)-Carbidopa] ?
OUT: 19.273

IN: Quick one: Replicate_1 (LOPAC screen with protease) of COc1ccccc1N1CCN(CCN(C(=O)c2ccc(F)cc2)c2ccccn2)CC1.Cl.Cl [p-MPPF dihydrochloride] ?
OUT: 5.881

IN: Quick one: Replicate_1 (LOPAC screen with protease) of Br.CN1CCc2cc(O)c(O)cc2C(c2ccccc2)C1 (centres unmarked) [SKF 75670 hydrobromide] ?
OUT: 25.015

IN: Quick one: Replicate_1 (LOPAC screen with protease) of NC(Cc1cc(O)c(O)cc1O)C(=O)O (racemic) [6-Hydroxy-dl-DOPA, reference compound] ?
OUT: 69.7112

IN: Quick one: Replicate_1 (LOPAC screen with protease) of `Cc1ccc(S(=O)(=O)N[C@@H](CCCCN)C(=O)CCl)cc1.Cl` ?
OUT: 21.9131

IN: Quick one: Replicate_1 (LOPAC screen with protease) of Cl.NCCS [Cysteamine hydrochloride] ?
OUT: 9.009

IN: Quick one: Replicate_1 (LOPAC screen with protease) of Br.CN=c1nc(-c2ccccc2)n(-c2ccccc2)s1 [SCH-202676 hydrobromide] ?
OUT: 100.647

IN: Quick one: Replicate_1 (LOPAC screen with protease) of N.S=C(S)N1CCCC1 [Ammonium pyrrolidinedithiocarbamate] ?
OUT: 73.369

IN: Quick one: Replicate_1 (LOPAC screen with protease) of `C[N+]1(C)CCN(c2ccccc2)CC1.[I-]` ?
OUT: 5.351

IN: Quick one: Replicate_1 (LOPAC screen with protease) of C=CCN1CC[C@]23c4c5ccc(O)c4O[C@@H]2/C(=N/N=C2\CC[C@@]4(O)C6Cc7ccc(O)c8c7[C@@]4(CCN6CC=C)[C@@H]2O8)CC[C@@]3(O)C1C5.Cl.Cl [Naloxonazine dihydrochloride] ?
OUT: 6.395

IN: Quick one: Replicate_1 (LOPAC screen with protease) of `CCCn1c(=O)c2[nH]c(-c3ccc(S(=O)(=O)O)cc3)nc2n(CCC)c1=O` ?
OUT: 7.582

IN: Quick one: Replicate_1 (LOPAC screen with protease) of `Br.CN1CCc2cc(O)cc3c2[C@H]1Cc1ccc(O)c(O)c1-3` ?
OUT: 99.6837

IN: Quick one: Replicate_1 (LOPAC screen with protease) of `O=c1[nH]c2cc(C(F)(F)F)ccc2n1-c1cc(C(F)(F)F)ccc1O` ?
OUT: 6.544

IN: Quick one: Replicate_1 (LOPAC screen with protease) of CN(C)CCCCSC(=N)N.Cl.Cl [SKF 91488 dihydrochloride] ?
OUT: 13.4504

IN: Quick one: Replicate_1 (LOPAC screen with protease) of Br.NC1CCc2cc(O)c(O)cc2C1 (centres unmarked) [6,7-ADTN hydrobromide] ?
OUT: 63.1732

IN: Quick one: Replicate_1 (LOPAC screen with protease) of CC(N)(Cc1ccc(O)c(O)c1)C(=O)O (racemic) ?
OUT: 5.736

IN: Quick one: Replicate_1 (LOPAC screen with protease) of C[C@@H]1OC[C@H](C[N+](C)(C)C)O1.[I-] [(+)-cis-Dioxolane iodide] ?
OUT: 5.683

IN: Quick one: Replicate_1 (LOPAC screen with protease) of Br.Br.NC(N)=NCCSSCCN=C(N)N [Guanidinoethyl disulfide dihydrobromide] ?
OUT: 35.2116

IN: Quick one: Replicate_1 (LOPAC screen with protease) of CC(C)CC(N)CSSCC(N)CC(C)C.Cl.Cl [L-Leucinethiol, oxidized dihydrochloride] ?
OUT: 48.0888

IN: Quick one: Replicate_1 (LOPAC screen with protease) of Br.CN1CCc2c(cc(O)c(O)c2Cl)C(c2cccc(Cl)c2)C1 (centres unmarked) [SKF 83565 hydrobromide] ?
OUT: 23.5852

IN: Quick one: Replicate_1 (LOPAC screen with protease) of Br.Cc1cccc(C2CN(C)CCc3c2cc(O)c(O)c3Cl)c1 (centres unmarked) [SKF 83959 hydrobromide] ?
OUT: 9.112

IN: Quick one: Replicate_1 (LOPAC screen with protease) of C[C@@]12N[C@@H](Cc3ccccc31)c1ccccc12.O=C(O)/C=C\C(=O)O [(-)-MK-801 hydrogen maleate] ?
OUT: 5.967

IN: Quick one: Replicate_1 (LOPAC screen with protease) of `Cc1cc(N)c2ccccc2[n+]1CCCCCCCCCCCCCC[n+]1c(C)cc(N)c2ccccc21.[I-].[I-]` ?
OUT: 10.1675

IN: Quick one: Replicate_1 (LOPAC screen with protease) of `N[C@@H](Cn1cc(I)c(=O)[nH]c1=O)C(=O)O` ?
OUT: 5.993

IN: Quick one: Replicate_1 (LOPAC screen with protease) of `C[N+](C)(C)CCC(=O)c1cccc2ccccc12.[I-]` ?
OUT: 102.129

IN: Quick one: Replicate_1 (LOPAC screen with protease) of Oc1ccccc1O [Pyrocatechol, reference compound] ?
OUT: 53.9412

IN: Quick one: Replicate_1 (LOPAC screen with protease) of Nc1ccc2c3c(cccc13)C(=O)NC2=O [4-Amino-1,8-naphthalimide] ?
OUT: 8.124

IN: Quick one: Replicate_1 (LOPAC screen with protease) of O=C(O)c1cc[c]([Hg][Cl])cc1 [4-Chloromercuribenzoic acid, reference compound] ?
OUT: 104.085

IN: Quick one: Replicate_1 (LOPAC screen with protease) of Cl.Cl.Oc1ccc2c3c1O[C@H]1c4[nH]c5c(c4C[C@@]4(O)[C@@H](C2)N(CC2CC2)CC[C@]314)C[C@@]1(O)[C@H]2Cc3ccc(O)c4c3[C@@]1(CCN2CC1CC1)[C@H]5O4 [nor-Binaltorphimine dihydrochloride] ?
OUT: 34.0521

IN: Quick one: Replicate_1 (LOPAC screen with protease) of CCC(NC(C)C)C(O)c1ccc(O)c(O)c1.CS(=O)(=O)O (centres unmarked) [Isotharine mesylate] ?
OUT: 8.4794
